The entries below are paired with their reported gcPBM binding intensity (ln).
Tested on: PfAP2-I AP2 domain 3 (GST-tagged)
test: gcPBM binding intensity (ln(normalized median fluorescence intensity)); higher = stronger DNA binding
The full ranking holds about 25,000 sequences; the median of “ln(normalized median fluorescence intensity)” is about 7.9, and the highest 2% start at about 11. The full list was thinned out, with the highest values kept by preference.
Respond with the number and no other words.

GTATTTAGATGATTAACACACATATGTGTATTAATA [CACACA_site6733]	7.92

Q: Let me know recorded gcPBM binding intensity (ln) for AATATTTATATTTACACACACATAATACCTATATGT [CACACA_site6167] , thanks.
Ans: 7.83

Q: Let me know recorded gcPBM binding intensity (ln) for ATATTTTAATTATAAAGTACATAAAAATATATAAAC [XGTACX_site6705] , thanks.
Ans: 7.92

Sourced from the supplement of paper PMC11417369
